# Target Of Assay: ARSeNL (mScarlet-ε-NanoLuc); ε subunit of the ATP synthase from Bacillus subtilis (Bacillus subtilis)
# Construct: isolated ε subunit (from ATeam1.03) flanked by N-terminal mScarlet and C-terminal NanoLuc as reporters
# Sequence (P37812 whole entry): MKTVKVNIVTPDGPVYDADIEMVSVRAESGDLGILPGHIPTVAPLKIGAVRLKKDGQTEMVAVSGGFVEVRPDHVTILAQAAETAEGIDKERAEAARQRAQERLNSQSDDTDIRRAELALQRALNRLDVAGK
# Procedure Summary: BRET ratio (mScarlet/NanoLuc) dose-response, microplate reader, Hill fit
# Cond: read-out: KD (apparent)
pKd: −log10 of the molar value.
Measured Property: pKd

> print(dat)
                              record.smiles  meas.value
1  Nc1ncnc2c1ncn2[C@@H]1O[C@H](COP(=O)(O)OP(=O)(O)OP(=O)(O)O)[C@@H](O)[C@H]1O        2.96

Reference for the values: paper PMC6721044
